Tested on: tobacco mosaic virus (TMV)
Assay: Induction of resistance to tobacco mosaic virus in tobacco
Format: in vivo
Conditions: spray 20 ug/ml, TMV 3 days post-treatment, scored 3 days after inoculation
Marks after values point to notes of the source that are not given here.
Task for the reader: assign each of the following substances its reported Effectiveness Uncovered (%) (decline in TMV lesions vs UTC, local response).

### Prompt GET /values?readout=Effectiveness Uncovered (%) (decline in TMV lesions vs UTC, local response)&item= PSPFTQMLMHSVGEILQAQN (P6a-11S)
### Response 71* %

### Prompt Same thing, different substance: QDPMQALMQLLEDLVKLDK (P14d-18D)
### Response 52%

### Prompt Same thing, different substance: SEEEEEALEQLLEDLVKLL (P14-31)
### Response 85* %

### Prompt Same thing, different substance: SEEEEELLQLLEDLV (P14-41)
### Response 86* %

### Prompt Same thing, different substance: QAGPQSANKTGNVDDANNQDPLQALAQLLEDLV (P14-22L,26A)
### Response 72* %

### Prompt Same thing, different substance: SEEEELDQLLTQLI (P1-31)
### Response 95* %

### Prompt Same thing, different substance: SEEEEEEEIAKLIS_LIESLL (SEEEEEEEIAKLISLIESLL; P15-61)
### Response 55* %

### Prompt Same thing, different substance: SEEEEEDAQLLAQLLKSLL (P18min-7D)
### Response 26%

### Prompt Same thing, different substance: QQPIDRQTIEQMAQLLAQLL (P18-8)
### Response 55%

### Prompt Same thing, different substance: QDPMQADMQLLEDLVKLLK (P14d-7D)
### Response 71* %

### Prompt Same thing, different substance: QDPMQASMQLLEDLVKLLK (P14d-7S)
### Response −112%

### Prompt Same thing, different substance: SEEEEELQQLLKLFSEILQ (P3-10)
### Response 94* %

### Prompt Same thing, different substance: KPNDSQSNIAKSISALIMSLLQ (P15b-12S)
### Response 76* %

###

Test system: Soy plants
Experiment: Growth tests after foliar spray, soy
Type: in vivo
Conditions: soy, foliar spray 5.0 ug/ml, 14 days
observable: Dry biomass increase (%)
A number alone suffices; assume %.

### Prompt GET /values?readout=Dry biomass increase (%)&item= ANNQDPMQALMQLLEDLV (P14a)
### Response 10.6

### Prompt Same thing, different sequence: SEEEEELEQLLEDLVKLL (P14-32)
### Response 14

### Prompt Same thing, different sequence: QAGPQSANKTGNVDDANNQDPMQALMQLLEDLV (P14)
### Response 3

### Prompt Same thing, different sequence: QAGPQSANKTGNVDDANNQDPMQALMQLL (P14-dc4)
### Response −7.6

### Prompt Same thing, different sequence: SQGISEKQLDQDLSQLIQALLQP (P4-14S-12D)
### Response −3.6

###

Task for the reader: assign each of the following sequences its reported Effectiveness Uncovered (%) (decline in TMV lesions vs UTC, local response).
Test system: tobacco mosaic virus (TMV)
Assay: Induction of resistance to tobacco mosaic virus in tobacco
Format: in vivo
Conditions: spray 20 ug/ml, TMV 3 days post-treatment, scored 3 days after inoculation
Marks after values point to notes of the source that are not given here.

### Prompt GET /values?readout=Effectiveness Uncovered (%) (decline in TMV lesions vs UTC, local response)&item= KPNDSQSNIAKLISALI (P15-62)
### Response 94* %

### Prompt Same thing, different sequence: QAGPQSANKTGNVDDANNQDPEQALLQLLEDLV (P14-22E,26L)
### Response 61* %

### Prompt Same thing, different sequence: QDPMQALMQLLEDDVKLLK [P14d-14D]
### Response 84* %

### Prompt Same thing, different sequence: SEEEEEEIAKLISALI (P15-63)
### Response 90* %

### Prompt Same thing, different sequence: QDPMQALMQLLEDLDKLLK (P14d-15D)
### Response 87* %

### Prompt Same thing, different sequence: QDPMQALMQDLEDLVKLLK (P14d-10D)
### Response 84* %

### Prompt Same thing, different sequence: SEEEEELTGVLQKLSKILEAL (P25min-15S)
### Response 81* %
